system: 5HT2 receptors (Rattus norvegicus, UniProt P14842)
Construct: membrane corresponding to 1 mg of rat cortex; from tissue; host or cells: rat cortex membranes
Sequence (P14842 whole entry): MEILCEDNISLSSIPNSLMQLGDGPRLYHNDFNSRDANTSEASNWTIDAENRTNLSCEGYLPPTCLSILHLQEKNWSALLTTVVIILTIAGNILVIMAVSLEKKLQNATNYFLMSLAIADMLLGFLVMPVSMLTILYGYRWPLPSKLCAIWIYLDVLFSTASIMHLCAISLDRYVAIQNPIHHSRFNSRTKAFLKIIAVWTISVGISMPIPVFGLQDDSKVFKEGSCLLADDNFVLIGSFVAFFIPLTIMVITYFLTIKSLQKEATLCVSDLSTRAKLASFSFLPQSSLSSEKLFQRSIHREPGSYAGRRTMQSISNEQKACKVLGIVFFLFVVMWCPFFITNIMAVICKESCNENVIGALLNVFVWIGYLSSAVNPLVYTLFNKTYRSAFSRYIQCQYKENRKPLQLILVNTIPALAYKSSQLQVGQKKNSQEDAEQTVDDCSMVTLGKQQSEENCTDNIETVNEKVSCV
assay.text: 5HT2 receptor binding ([3H]ketanserin displacement)
reported.conditions: [3H]ketanserin 0.5 nM, rat cortex membrane, 30 min, 35° C., pH 7.4
Where a name gives a salt, the structure may show the parent alone.
Mark Yes for IC50 under 80 nM, No if at or over.

// below: answered compounds
Cc1cc(=O)c2ccc(OCCCN3CCC(C(=O)c4ccc(F)cc4)CC3)cc2o1 [Example 2, hydrochloride] : Yes
Cl.O=C(c1ccc(F)cc1)C1CCN(CCCOc2ccc3c(=O)ccoc3c2)CC1 [Example 1, hydrochloride] : Yes
OC(CCCN1CCN(c2ncc(F)cn2)CC1)c1ccc(F)cc1 (centres unmarked) [BMY-14802, reference compound] : No

Then this compound:
Identify whether the compound Cl.O=C(c1ccc(F)cc1)C1CCN(CCCOc2ccc3c(=O)c(CO)coc3c2)CC1 [Example 4, hydrochloride] records IC50 below 80 nM.
Yes
